- Tested on: SK-MEL-28
- experiment-description: NCI tumour cell line growth inhibition, 48 h
Activity calls are given as the source filed them. No stated cut-off is given here; in the data, active = GI50 up to about 1.1 µM and inactive = higher.
A collection of compounds and their measured GI50

# annotated cases, reported GI50 shown
{"compound": "C=C1C(=O)O[C@H]2[C@H]1[C@H](OC(=O)/C(C)=C\\C)CC(=C)[C@@H]1[C@H](O)[C@H]3O[C@@]3(C)[C@@]12O [EUPATUNDIN]", "parameter": "GI50", "readout-value": "> 100 µM (inactive)"}
{"compound": "Cc1n[n+](Cc2ccccc2)c2sc(N)nn12", "parameter": "GI50", "readout-value": "> 100 µM (inactive)"}
{"compound": "O=C1NC2c3c(I)sc(I)c3C(O)C2O1 (stereo not given)", "parameter": "GI50", "readout-value": "> 100 µM (inactive)"}
{"compound": "COc1ccc(/C=c2\\s/c(=C3/SC(=S)N(c4ccccc4)C3=O)n(-c3ccccc3)c2=O)cc1", "parameter": "GI50", "readout-value": "> 100 µM (inactive)"}
{"compound": "CC(=O)CC(=O)Nc1ccccc1[N+](=O)[O-]", "parameter": "GI50", "readout-value": "> 100 µM (inactive)"}
{"compound": "CC1(C)[C@H]2CC[C@]1(C)[C@H](OC(=O)NNC(=O)O[C@@H]1C[C@@H]3CC[C@@]1(C)C3(C)C)C2", "parameter": "GI50", "readout-value": "24.3 µM (inactive)"}
{"compound": "COc1ccc(N2C(=O)CSC2c2c[nH]c3ccccc23)cc1 (stereo not given)", "parameter": "GI50", "readout-value": "> 100 µM (inactive)"}
{"compound": "COc1nc2c(nc(N)n2C2OC(CO)C(O)C(O)C2O)c(=O)[nH]1 (stereo not given)", "parameter": "GI50", "readout-value": "> 100 µM (inactive)"}
{"compound": "COc1ccc(C#CC(=O)O)c(OC)c1", "parameter": "GI50", "readout-value": "> 100 µM (inactive)"}

Please examine the following record next.
Q) Entry under review: Cn1ccnc1Oc1ccc(Cl)cc1 . Reported GI50?
A) 14.4 µM (inactive)
